// data source = paper PMC4710522

Target sequence: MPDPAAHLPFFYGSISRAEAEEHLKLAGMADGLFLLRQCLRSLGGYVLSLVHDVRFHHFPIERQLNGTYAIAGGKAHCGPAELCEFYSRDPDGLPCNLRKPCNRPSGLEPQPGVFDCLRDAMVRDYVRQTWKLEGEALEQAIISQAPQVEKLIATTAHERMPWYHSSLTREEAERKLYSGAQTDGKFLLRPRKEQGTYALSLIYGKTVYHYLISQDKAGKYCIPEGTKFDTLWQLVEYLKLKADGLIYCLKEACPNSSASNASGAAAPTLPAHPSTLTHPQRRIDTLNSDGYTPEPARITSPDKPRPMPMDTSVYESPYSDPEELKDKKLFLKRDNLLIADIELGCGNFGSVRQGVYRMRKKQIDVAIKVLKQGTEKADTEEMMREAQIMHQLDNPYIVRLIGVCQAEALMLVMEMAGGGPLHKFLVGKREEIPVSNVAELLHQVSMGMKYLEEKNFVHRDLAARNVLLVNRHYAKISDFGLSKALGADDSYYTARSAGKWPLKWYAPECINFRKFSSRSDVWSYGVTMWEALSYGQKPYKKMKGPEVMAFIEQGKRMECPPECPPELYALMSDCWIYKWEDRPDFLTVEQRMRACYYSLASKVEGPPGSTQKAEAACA

>  <structure_notation>
c1cc(CC2CCOCC2)n2nc(Nc3ccc4c(NC5CCOCC5)n[nH]c4c3)nc2c1

>  <IC50>
> 3 µM

$$$$
